- System: INA-6
- Assay Explanation: Cell viability assay (annexin V-FITC/propidium iodide, flow cytometry) in INA-6 multiple myeloma cells
- Assay type: cell-based, human
- Condition Description: Homo sapiens, INA-6, 72 h, INA-6 multiple myeloma cells, 72 hours of treatment, viable cell fraction; mean of at least three determinations; read-out: INA-6 EC50(±sdv)
Please go through the items and note down their pEC50.
API: returns pEC50 as number; meaning -log10 of concentration in mol/L.

Consider the compound COc1ccc(C2C(C(=O)Nc3cccc(C)n3)c3ccccc3C(=O)N2c2ccccc2)cc1 (stereo not drawn) [trans-7b] and give its measured pEC50.
6.39

Consider the compound COc1ccc(C2C(C(=O)Nc3cccc(C)n3)c3ccccc3C(=O)N2c2ccc(OC)cc2)cc1 (stereo not drawn) [trans-7d] and give its measured pEC50.
6.17

Consider the compound COc1ccc(C2C(C(=O)O)c3ccccc3C(=O)N2c2ccccc2)cc1 (stereo not drawn) [trans-5b] and give its measured pEC50.
5.89

Consider the compound Cc1cc(C)cc(C2C(C(=O)Nc3cccc(C)n3)c3ccccc3C(=O)N2c2cc(C)cc(C)c2)c1 (stereo not drawn) [trans-7m] and give its measured pEC50.
4.37

Consider the compound Cc1cccc(NC(=O)C2c3ccccc3C(=O)N(c3ccc(F)cc3)C2c2ccc(F)cc2)n1 (stereo not drawn) [trans-7k] and give its measured pEC50.
5.19

====

Please go through the items and note down their EC50.
- System: INA-6
- Assay Explanation: Cell viability assay (annexin V-FITC/propidium iodide, flow cytometry) in INA-6 multiple myeloma cells
- Assay type: cell-based, human
- Condition Description: Homo sapiens, INA-6, 72 h, INA-6 multiple myeloma cells, 72 hours of treatment, viable cell fraction; mean of at least three determinations; read-out: INA-6 EC50(±sdv)
Give a bare numeral; the unit µM is implied.

Consider the compound Cc1cccc(NC(=O)C2c3ccccc3C(=O)N(c3ccc(Cl)cc3)C2c2ccc(Cl)cc2)n1 (stereo not drawn) [trans-7l] and give its measured EC50.
2.9

Consider the compound Cc1cccc(NC(=O)C2c3ccccc3C(=O)N(c3ccc(O)cc3)C2c2ccc(O)cc2)n1 (stereo not drawn) [trans-7o] and give its measured EC50.
30

Consider the compound CNC(=O)C1c2ccccc2C(=O)N(c2ccc(OC)cc2)C1c1ccc(OC)cc1 (stereo not drawn) [trans-7g] and give its measured EC50.
7.1

Consider the compound COc1ccc(C2C(C(=O)Nc3cccnc3)c3ccccc3C(=O)N2c2ccccc2)cc1 (stereo not drawn) [trans-7q] and give its measured EC50.
0.57

====

- Test system: INA-6
- Assay Explanation: Cell viability assay (annexin V-FITC/propidium iodide, flow cytometry) in INA-6 multiple myeloma cells
- Type: cell-based, human
- Condition Description: Homo sapiens, INA-6, 72 h, INA-6 multiple myeloma cells, 72 hours of treatment, viable cell fraction; mean of at least three determinations; read-out: INA-6 EC50(±sdv)
Parameter: EC50 (nM)
Give a bare numeral; the unit nM is implied.

Consider the molecule O=C(O)C1c2ccccc2C(=O)N(c2ccccc2)C1c1ccccc1 (stereo not drawn) [trans-5a] and give its measured EC50.
6900

Consider the molecule COc1ccc(C2C(C(=O)Nc3ccccn3)c3ccccc3C(=O)N2c2ccc(OC)cc2)cc1 (stereo not drawn) [trans-7f] and give its measured EC50.
530

Consider the molecule COc1ccc(C2C(C(=O)Nc3ncccn3)c3ccccc3C(=O)N2c2ccccc2)cc1 (stereo not drawn) [trans-7p] and give its measured EC50.
200

Consider the molecule COc1ccc([C@H]2[C@@H](C(=O)O)c3ccccc3C(=O)N2c2ccc(OC)cc2)cc1 (relative stereo) [trans-6d] and give its measured EC50.
7900

Consider the molecule COc1ccc(C2C(C(=O)Nc3cc(C)cc(C)n3)c3ccccc3C(=O)N2c2ccccc2)cc1 (stereo not drawn) [trans-7r] and give its measured EC50.
340

Consider the molecule Cc1cccc(NC(=O)C2c3ccccc3C(=O)N(c3ccccc3)C2c2ccccc2)n1 (stereo not drawn) [trans-7a] and give its measured EC50.
2300

Consider the molecule COc1ccc(C2C(C(=O)Nc3cc(C)cc(C)c3)c3ccccc3C(=O)N2c2ccc(OC)cc2)cc1 (stereo not drawn) [trans-7j] and give its measured EC50.
950
